These entries and their values trace back to patent US8546375B2.

experimental-target: Melanin Concentrating Hormone Receptor 1 (MCHR1) (Homo sapiens)
Construct: expressed in transfected cells
Sequence (Q99705 whole entry): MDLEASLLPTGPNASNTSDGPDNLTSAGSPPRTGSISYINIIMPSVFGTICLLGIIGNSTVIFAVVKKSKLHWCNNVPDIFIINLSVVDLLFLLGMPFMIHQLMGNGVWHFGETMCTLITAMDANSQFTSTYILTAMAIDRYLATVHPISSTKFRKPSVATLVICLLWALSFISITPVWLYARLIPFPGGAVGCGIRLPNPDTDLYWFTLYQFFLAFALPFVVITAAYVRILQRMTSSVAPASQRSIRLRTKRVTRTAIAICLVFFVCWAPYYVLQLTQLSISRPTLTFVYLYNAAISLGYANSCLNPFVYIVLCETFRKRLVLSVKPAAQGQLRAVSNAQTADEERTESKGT
method: MCHR1 Receptor Activation Assay (GTPγ^35S)
Type: biochemical
condition-label: read-out: GTPγ^35S IC50
pIC50: −log10 of the molar value.
property-measured: pIC50

[[record]]
structure_string = "CN(C)Cc1ccc(OC2CN(C(=O)c3nnc(-c4ccc(OC(F)F)cc4)o3)C2)cc1"
property_measured = "pIC50"
value_reported = 7.77

[[record]]
structure_string = "CCC1(CO)CCN(Cc2ccc(OC3CN(C(=O)c4nnc(-c5ccc(OC)cc5)o4)C3)cc2)CC1"
property_measured = "pIC50"
value_reported = 7.82

[[record]]
structure_string = "CN(C)Cc1ccc(SC2CN(C(=O)c3nnc(-c4ccccc4)o3)C2)cc1"
property_measured = "pIC50"
value_reported = 7.72

[[record]]
structure_string = "CSc1ccc(-c2nnc(C(=O)N3CC(Oc4ccc(CN(C)C)cc4)C3)o2)cc1"
property_measured = "pIC50"
value_reported = 7.74

